Hello, the source for this data is BigSolDB 2.1, in case you need it.

Details: in isopropanol, 293.15 K
experimentalEndpoint: solubility (mole fraction)
Numbers only.

// query Value lookup for solubility (mole fraction); key = CC(C)[C@H](NC(=O)OCC1c2ccccc2-c2ccccc21)C(=O)O
// result 0.0161

----------
Conditions: in n-butyl acetate, 293.15 K
experimentalEndpoint: solubility (mole fraction)
Numbers only.

// query Value lookup for solubility (mole fraction); key = CC(C)[C@H](NC(=O)OCC1c2ccccc2-c2ccccc21)C(=O)O
// result 0.0184

----------
Conditions: in 2-butanone, 298.15 K
experimentalEndpoint: solubility (mole fraction)
Give bare numbers.

// query Value lookup for solubility (mole fraction); key = CC(C)[C@H](NC(=O)OCC1c2ccccc2-c2ccccc21)C(=O)O
// result 0.057

----------
Conditions: in sec-butanol, 288.15 K
experimentalEndpoint: solubility (mole fraction)

// query Value lookup for solubility (mole fraction); key = CC(C)[C@H](NC(=O)OCC1c2ccccc2-c2ccccc21)C(=O)O
// result 0.0174

----------
Conditions: in n-butyl acetate, 288.15 K
experimentalEndpoint: solubility (mole fraction)
Answers are plain numbers.

// query Value lookup for solubility (mole fraction); key = CC(C)[C@H](NC(=O)OCC1c2ccccc2-c2ccccc21)C(=O)O
// result 0.0162

----------
Settings: in 2-butanone, 308.15 K
experimentalEndpoint: solubility (mole fraction)
Answers are plain numbers.

// query Value lookup for solubility (mole fraction); key = CC(C)[C@H](NC(=O)OCC1c2ccccc2-c2ccccc21)C(=O)O
// result 0.0699

----------
Conditions: in 2-butanone, 318.15 K
experimentalEndpoint: solubility (mole fraction)
Numbers only.

// query Value lookup for solubility (mole fraction); key = CC(C)[C@H](NC(=O)OCC1c2ccccc2-c2ccccc21)C(=O)O
// result 0.0902

----------
Conditions: in n-propanol, 303.15 K
experimentalEndpoint: solubility (mole fraction)
One number for each entry.

// query Value lookup for solubility (mole fraction); key = CC(C)[C@H](NC(=O)OCC1c2ccccc2-c2ccccc21)C(=O)O
// result 0.0319

----------
Conditions: in n-pentanol, 318.15 K
experimentalEndpoint: solubility (mole fraction)
One number for each entry.

// query Value lookup for solubility (mole fraction); key = CC(C)[C@H](NC(=O)OCC1c2ccccc2-c2ccccc21)C(=O)O
// result 0.0495

----------
Details: in n-butyl acetate, 308.15 K
experimentalEndpoint: solubility (mole fraction)

// query Value lookup for solubility (mole fraction); key = CC(C)[C@H](NC(=O)OCC1c2ccccc2-c2ccccc21)C(=O)O
// result 0.0273

----------
Settings: in sec-butanol, 318.15 K
experimentalEndpoint: solubility (mole fraction)
Numbers only.

// query Value lookup for solubility (mole fraction); key = CC(C)[C@H](NC(=O)OCC1c2ccccc2-c2ccccc21)C(=O)O
// result 0.0653

----------
Details: in sec-butanol, 303.15 K
experimentalEndpoint: solubility (mole fraction)

// query Value lookup for solubility (mole fraction); key = CC(C)[C@H](NC(=O)OCC1c2ccccc2-c2ccccc21)C(=O)O
// result 0.0349

----------
Conditions: in ethanol, 308.15 K
experimentalEndpoint: solubility (mole fraction)
One number for each entry.

// query Value lookup for solubility (mole fraction); key = CC(C)[C@H](NC(=O)OCC1c2ccccc2-c2ccccc21)C(=O)O
// result 0.0462

----------
Conditions: in n-propanol, 308.15 K
experimentalEndpoint: solubility (mole fraction)

// query Value lookup for solubility (mole fraction); key = CC(C)[C@H](NC(=O)OCC1c2ccccc2-c2ccccc21)C(=O)O
// result 0.0398

----------
Settings: in acetone, 323.15 K
experimentalEndpoint: solubility (mole fraction)
Give bare numbers.

// query Value lookup for solubility (mole fraction); key = CC(C)[C@H](NC(=O)OCC1c2ccccc2-c2ccccc21)C(=O)O
// result 0.121

----------
Conditions: in 2-butanone, 288.15 K
experimentalEndpoint: solubility (mole fraction)
One number for each entry.

// query Value lookup for solubility (mole fraction); key = CC(C)[C@H](NC(=O)OCC1c2ccccc2-c2ccccc21)C(=O)O
// result 0.0448

----------
Settings: in ethanol, 318.15 K
experimentalEndpoint: solubility (mole fraction)
Give bare numbers.

// query Value lookup for solubility (mole fraction); key = CC(C)[C@H](NC(=O)OCC1c2ccccc2-c2ccccc21)C(=O)O
// result 0.0714

----------
Settings: in ethanol, 313.15 K
experimentalEndpoint: solubility (mole fraction)
Give bare numbers.

// query Value lookup for solubility (mole fraction); key = CC(C)[C@H](NC(=O)OCC1c2ccccc2-c2ccccc21)C(=O)O
// result 0.057

----------
Details: in acetone, 318.15 K
experimentalEndpoint: solubility (mole fraction)
One number for each entry.

// query Value lookup for solubility (mole fraction); key = CC(C)[C@H](NC(=O)OCC1c2ccccc2-c2ccccc21)C(=O)O
// result 0.104

----------
Conditions: in isopropanol, 288.15 K
experimentalEndpoint: solubility (mole fraction)
Numbers only.

// query Value lookup for solubility (mole fraction); key = CC(C)[C@H](NC(=O)OCC1c2ccccc2-c2ccccc21)C(=O)O
// result 0.0133

----------
Details: in n-propanol, 318.15 K
experimentalEndpoint: solubility (mole fraction)

// query Value lookup for solubility (mole fraction); key = CC(C)[C@H](NC(=O)OCC1c2ccccc2-c2ccccc21)C(=O)O
// result 0.057

----------
Settings: in isobutanol, 318.15 K
experimentalEndpoint: solubility (mole fraction)

// query Value lookup for solubility (mole fraction); key = CC(C)[C@H](NC(=O)OCC1c2ccccc2-c2ccccc21)C(=O)O
// result 0.0366

----------
Details: in isopentanol, 313.15 K
experimentalEndpoint: solubility (mole fraction)
One number for each entry.

// query Value lookup for solubility (mole fraction); key = CC(C)[C@H](NC(=O)OCC1c2ccccc2-c2ccccc21)C(=O)O
// result 0.0351

----------
Settings: in 2-butanone, 323.15 K
experimentalEndpoint: solubility (mole fraction)
Numbers only.

// query Value lookup for solubility (mole fraction); key = CC(C)[C@H](NC(=O)OCC1c2ccccc2-c2ccccc21)C(=O)O
// result 0.102

----------
Conditions: in acetonitrile, 308.15 K
experimentalEndpoint: solubility (mole fraction)
One number for each entry.

// query Value lookup for solubility (mole fraction); key = CC(C)[C@H](NC(=O)OCC1c2ccccc2-c2ccccc21)C(=O)O
// result 0.00703

----------
Settings: in ethanol, 288.15 K
experimentalEndpoint: solubility (mole fraction)
Give bare numbers.

// query Value lookup for solubility (mole fraction); key = CC(C)[C@H](NC(=O)OCC1c2ccccc2-c2ccccc21)C(=O)O
// result 0.0243

----------
Details: in isopentanol, 298.15 K
experimentalEndpoint: solubility (mole fraction)
Numbers only.

// query Value lookup for solubility (mole fraction); key = CC(C)[C@H](NC(=O)OCC1c2ccccc2-c2ccccc21)C(=O)O
// result 0.0192

----------
Conditions: in ethanol, 293.15 K
experimentalEndpoint: solubility (mole fraction)
Answers are plain numbers.

// query Value lookup for solubility (mole fraction); key = CC(C)[C@H](NC(=O)OCC1c2ccccc2-c2ccccc21)C(=O)O
// result 0.0261

----------
Conditions: in isobutanol, 298.15 K
experimentalEndpoint: solubility (mole fraction)
Give bare numbers.

// query Value lookup for solubility (mole fraction); key = CC(C)[C@H](NC(=O)OCC1c2ccccc2-c2ccccc21)C(=O)O
// result 0.0152

----------
Conditions: in ethanol, 283.15 K
experimentalEndpoint: solubility (mole fraction)
One number for each entry.

// query Value lookup for solubility (mole fraction); key = CC(C)[C@H](NC(=O)OCC1c2ccccc2-c2ccccc21)C(=O)O
// result 0.0177

----------
Settings: in acetonitrile, 298.15 K
experimentalEndpoint: solubility (mole fraction)
One number for each entry.

// query Value lookup for solubility (mole fraction); key = CC(C)[C@H](NC(=O)OCC1c2ccccc2-c2ccccc21)C(=O)O
// result 0.00477

----------
Settings: in n-butanol, 318.15 K
experimentalEndpoint: solubility (mole fraction)

// query Value lookup for solubility (mole fraction); key = CC(C)[C@H](NC(=O)OCC1c2ccccc2-c2ccccc21)C(=O)O
// result 0.0536

----------
Settings: in sec-butanol, 323.15 K
experimentalEndpoint: solubility (mole fraction)
Answers are plain numbers.

// query Value lookup for solubility (mole fraction); key = CC(C)[C@H](NC(=O)OCC1c2ccccc2-c2ccccc21)C(=O)O
// result 0.0801

----------
Settings: in isopentanol, 293.15 K
experimentalEndpoint: solubility (mole fraction)
Give bare numbers.

// query Value lookup for solubility (mole fraction); key = CC(C)[C@H](NC(=O)OCC1c2ccccc2-c2ccccc21)C(=O)O
// result 0.0159

----------
Settings: in n-pentanol, 288.15 K
experimentalEndpoint: solubility (mole fraction)
One number for each entry.

// query Value lookup for solubility (mole fraction); key = CC(C)[C@H](NC(=O)OCC1c2ccccc2-c2ccccc21)C(=O)O
// result 0.0172

----------
Conditions: in isopropanol, 283.15 K
experimentalEndpoint: solubility (mole fraction)

// query Value lookup for solubility (mole fraction); key = CC(C)[C@H](NC(=O)OCC1c2ccccc2-c2ccccc21)C(=O)O
// result 0.0105

----------
Conditions: in sec-butanol, 313.15 K
experimentalEndpoint: solubility (mole fraction)
Numbers only.

// query Value lookup for solubility (mole fraction); key = CC(C)[C@H](NC(=O)OCC1c2ccccc2-c2ccccc21)C(=O)O
// result 0.0549
